System: K4 kissing-loop RNA reporter
assay info: apparent KD of K4 kissing-loop reporter; higher = weaker reporter binding
run parameters: Eterna round: R107; input ligand: tryptophan 2.4 mM
recorded endpoint: apparent KD of K4 kissing-loop reporter (nM)
Lab book: enter the figure in nM, no units written.

Look over these answered cases.
residue string	assay system	quantitative result
CCGCCGGUCGGAAGGAGCGCACGCCAGAGUGAUGUUCUGGCGCGGGCAUUUUGUGCCCGCGUGCAGGUAGGUCGCCGAUUCUGGC [Quxeorti]	K4 kissing-loop RNA reporter	498
UUUCAAAUUUAAGGAUAUUAGAUACCAGGAAAGGAGUGAUGUUCCGUGCUACGAUAGUGCUAGGGCUAAGAAGGUAAGUCUCGAG [theeternabot_sameState_KL_FMN_B_37]	K4 kissing-loop RNA reporter	59.1
AAGUCAUAGGCAGGAUAUGCAUUGUAGUAAGGCAAUAUAUACGUAUAGAGUGAUGUUUUGUACCAGGCAGAAGGGCUACAUCAGU [FMN B Excl V11 (+G)]	K4 kissing-loop RNA reporter	492
AAUAUAGUGAUGUUAUAUAAGAAGGAGUUACGAGGACCGGUACGGCCGCCACUCGAAACGAGUGAGGAUUUGGGAGAUUGGGUUU [SSTryptA.M]	K4 kissing-loop RNA reporter	389
UGAUACCAGACGGCCGCCACUUCCGUAAGUCAAAGACUUACCAAGGGAAUCGUCCAGUGAUGUUGGAGGACCGGGUCUGGUAUCU [FiskerMod 6 - Jieux - Exclusion - Tryptophan B]	K4 kissing-loop RNA reporter	788
UGCAGUGAUGUUGCUAUUUUUCUUGAUUAACGAGGACCGGUACGGCCGCCACUCGAUUUCUCUCUAAUCCAGUAUGUUGUUUAGU [JR_ExcTryptoA_Sub001]	K4 kissing-loop RNA reporter	90.4
AAACGCUGGUGAAUAACACUAGCGAAUUCGCGAGGACCGGUACGGCCGCCACUCGCUAACUGCGAGUGAUGUUCGAUAAUAAAAU [Mat - Mod of OpenEnded 3 - D2]	K4 kissing-loop RNA reporter	142
GUUGCAGCCCGUGAUACCAGCAUCGGUCGCCGGGUCCAGUGAUGUUGGGCUUGCGUUCUAUGCCCUUGGCAGCGCGGCCUGACAG [Qulaanar]	K4 kissing-loop RNA reporter	415

Task: Item under review: AAUAAAAUCACGGCCGCCACUGAUGCUAAUAUUAGCAGUGAUGUUGCUAUGUAUAUUUUAUUUAACAGGACCGGGUGAAUAUUUA [JR_ExcTryptoB_Sub014] . Reported apparent KD of K4 kissing-loop reporter?
Result: 133

Task: Another sequence: CCAUGAGGAUAAGAUGAUAUCAUAACAGAAGGAGCGAGUGAUAACUCAGGUAGGUCGCUGAAUUUAUCGAGUGAUGUUCGAUGAA [Same State Arginine A GF11]
Result: 164

Task: Another sequence: CUAGAAGUGAUGUUUCAUAGUAAAUCUGAUACCAGCAUUAAACCCUGCCCUUGGCAGCAGAAUGGGCUGAUAGACUCCUGCAGCU [theeternabot_sameState_KL_Theo_A_36]
Result: 182

Task: Another sequence: GUUACGCAUGGAAGGAGCGCAGGCUCAACAAAUAGCUCAGUGAUGUUGAGCAUAUUAAAACUGCAGGUAGGUCGCCAUGUGUAAC [Ex Arginine B K4 23]
Result: 588

====

System: MS2 coat protein
assay info: apparent KD of MS2 coat protein; designed switch direction (-1 OFF switch, 1 ON switch): 1; higher = weaker reporter binding
run parameters: input ligand: none
Class 1.0: apparent KD of MS2 coat protein at least 90 nM. Class 0.0: apparent KD of MS2 coat protein below 90 nM.

Consider the worked cases shown below.
residue string	class assignment
CUACGCGCCGCAGGAUAUGCCGACCCGUGUUGAGCAGAAGGGCGAAACAUGAGGAUCACCCAUGUUGAAAGAGCGCAAAAUUAA [Erteerte] (Eterna round: R96, puzzle: Same State NG 1)	0.0
UUAAUAAUGUAAGGAUAUACAUGAGGAUUUCUCGUAGAAGGUACAGGACAUGAGGAUCACCCAUGUAUCGCUCCGUAGAGCGUA [Mat - Same State NG 1 - JL mod - D23] (Eterna round: R96, puzzle: Same State NG 1)	1.0
GUAGCAUACCGAGGAUAUUCAUAUUACAUGAGGAUCACCCAUGUUAUAGGCCGAUUACGGCCUUGGGAGAAGGCGGAAUGCUAC [Xeonanis - 20 Mod24] (Eterna round: R96, puzzle: Same State NG 2)	0.0

Task: Determine whether measured apparent KD of MS2 coat protein meets or exceeds 90 nM for ACAUGAGAGAUAGGAUAUCAUGUACCUACAUGUGACAUGAGGAUCACCCAUGUGGUAAGUAUGAGUGAGAAGGAUCAGAUAUGU [Equivalence 35 - Jieux - Same State NG 2] (Eterna round: R96, puzzle: Same State NG 2)
Result: 1.0

Task: Another sequence: AUGAAGAACUAAGGAUAUUGAAUACAUAUGUUUAACAUGAGGAUCACCCAUGUGGGUUGCGGUAUCGAGAAGGUAGAAUAAUAG [Mat - same State NG 2 - JL mod - D92] (Eterna round: R96, puzzle: Same State NG 2)
Result: 1.0

Task: Another sequence: AAACAUGAGGAUCACCCAUGUCGAUCAGAACUCUGAUCUGCUCAGGAUAUCCGAAUGCGCGUUUCGGAGAAGGGAGAAAUGUGA [Lareraedqu] (Eterna round: R96, puzzle: Same State NG 3)
Result: 0.0

====

Tested on: MS2 coat protein
assay info: apparent KD of MS2 coat protein; higher = weaker reporter binding
run parameters: Eterna round: R107; input ligand: tryptophan 2.4 mM
Class MET: apparent KD of MS2 coat protein at least 0.03 µM. Class NOT MET: apparent KD of MS2 coat protein below 0.03 µM.

residue string	assay system	class assignment
GUAAAUGUGACGGAUACCAGCGUGUUGUAGAACAUGAGGAUCACCCAUGUAGUGAUCAUGCGCCCUUGGCAGCUGGUAUGUUUGU [7.aB]	MS2 coat protein	MET
CUAUAAGUAACUGAUACCAGUGUACUGACAUGAGGAUCACCCAUGUUGGGUUUUGUUGUACACCCUUGGCAGCAGAAUCUUGUAG [AstrosExyTheB#15]	MS2 coat protein	MET
ACAUGAGGAUCACCCAUGUGUGUAAGUCCUCGAGGACCGGUACGGCCGCCACUCGAACGAGUGAAGCCUGAUACUAAGUAUCAGG [SS Trp A s5]	MS2 coat protein	NOT MET

Shifting focus to the sequence that follows.
Task: Determine whether measured apparent KD of MS2 coat protein meets or exceeds 0.03 µM for AGCCCGUGAGCGGCCGCCACUGGAGGCUUUGCGCGACAUGAGGAUCACCCAUGUGUGCCCGGCGUUAGGACCGGGUUCACGUGGU [#1 Same State - Tryptophan B Attempt #19 (HarryS)]
Result: MET

====

Consider the following sequences and their measured apparent KD of MS2 coat protein readings.
Tested on: MS2 coat protein
assay info: apparent KD of MS2 coat protein; designed switch direction (-1 OFF switch, 1 ON switch): -1; higher = weaker reporter binding
run parameters: Eterna round: R95; input ligand: microRNA oligo, concentration not stated
Lab book: enter the figure in µM, no units written.

Look over these answered cases.
residue string	apparent KD of MS2 coat protein [µM]
CUCCUCAUGGCGCCUAAACACAUGAGGAUCACCCAUGUACAGGCUUCUUGCCGUCUUAUAAUAAAACCGAGGAUGCG [Onleorqula] (puzzle: Sensor v3, turn-off variant 1)	0.283
UCAUACGUUGAGGAUAUGUCAGUUAGUAUAUUUACAGAAGGCGAUACAUGAGGAUCACCCAUGUUUAUGGGCAU [Ex-6 Malc#4] (puzzle: Exclusion 6)	0.225

Task: Item under review: AGUAGUAGUUUCCGUUCUUACAUGAGGAUCACCCAUGUUUCUUGACGUGCACGCGAUGCUCGUCAGACUACCAGAUG [salish99_TOv1_r3_056] (puzzle: Sensor v3, turn-off variant 1) . Reported apparent KD of MS2 coat protein?
Result: 0.0513

Task: Another sequence: GUGUACGGAGGAUAUAUGUGGGCAGGCUGACCUGCAGCUUCACAUGAGGAUCACCCAUGUAGAAGGCUGUGCAC [JL-ex2-2.08 Brourd mod] (puzzle: Exclusion 2)
Result: 0.0169

Task: Another sequence: UUUUCGUGAGGAUAUCAGUAGUAAAUAAAUAAAAUUACUACUGAGAAGGCACAUGAGGAUCACCCAUGUUCCUU [salish99_ex3_r3_094] (puzzle: Exclusion 4)
Result: 0.0136

====

System: K4 kissing-loop RNA reporter;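 also: bound reporter read as fluorescence of individual clusters on recovered sequencing chips by microscopy, with normalized cluster intensities fitted with a binding model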
assay info: apparent KD of K4 kissing-loop reporter; higher = weaker reporter binding
run parameters: Eterna round: R107; input ligand: tryptophan 2.4 mM
recorded endpoint: apparent KD of K4 kissing-loop reporter (nM)
Lab book: enter the figure in nM, no units written.

Look over these answered cases.
residue string	assay system	unit abbrev	apparent KD of K4 kissing-loop reporter
CUUGAUGGAAACAUCGAGUAGAUUACUGAUACCAGUAUCGAUAGAUACCCUUGGCAGCAGAAUCAGUGAUCACGAGUGAUGUUCG [Ex Theophylline A K4 8]	K4 kissing-loop RNA reporter	nM	484
UGCAUGCUUGUAGUGAUGUUACAAGAUGAUACCAGUGCUUUUUUGCACCCUUGGCAGCGUCAUAGUGCAUGCACGUCGAAAGACG	K4 kissing-loop RNA reporter	nM	201

Task: Item under review: GCGCGGCUCAGUGAUGUUGAGCCUCGGAAACGAGGACCGGUACGGCCGCCACUCGUCCGCGCAGCUGAGGCAAAAGCCUCGGCAA [Omei KL Tryp A SS B v1] . Reported apparent KD of K4 kissing-loop reporter?
Result: 261

Task: Another sequence: CGCGCGCGUUUGAGAGGGCGCGCGCGAAGUGAGGAUAUUUAGGGAGAAAGAAGGCACUAUAAAAUAUAGUGAUGUUAUAUAAGGG [SSFMNA.F]
Result: 186

Task: Another sequence: GCUACUGCCUUAGGAUAUAGUUGAGUGAUGUUCAAGCAUAUGCAUGGGAAAACCAUGCAUAUGUCCCUAGAAGGGAGGCAGUAGC
Result: 740

Task: Another sequence: UUCGAAAGUCGAAGGAGCGCUGGCGGUCAUAGACUAUAUCUGUAGUGAUGUUACAGAUUCCAGCAGGUAGGUCGCGACAGAGACA [Arg B SS t18b]
Result: 108

Task: Another sequence: GAUGCAUAUUCCUGGAGGAAGAUGGUUAAGAAGGAUAUCAAAGCCGUGAGAAGGUCUAAACCUAAUAGUCGAGUGAUGUUCGACC [theeternabot_sameState_KL_FMN_A_35]
Result: 278

Task: Another sequence: CAUAGGAAACUAUGUUUCUCUCUGACUGAAGGAGCGCGUGAAAACGCAGGUAGGUCGCAGAAUUUAACAGAGAGUGAUGUUCUCA [Ex Arginine A K4 12]
Result: 430

Task: Another sequence: AAUCGCAGUGAUGUUGCGAUUCCGUUGAGGGAGGAUAUUGGUAAUACAAGAAGGUUCGGUUACGGGAGAUGUUAGUAAUAGGGCC [Exclusion FMN A GF21]
Result: 85.2

Task: Another sequence: AAUUUAUUAACUGAUACCAGACUUAAUGAAUUGUAAAUUACUAGUGAUGUUAGUGAAUCUGUCCCUUGGCAGCAGUAUUUAUUAA [JR_ExcTheophyB_Sub010]
Result: 124

Task: Another sequence: UUUAACGAGUGAUGUUCGAAGAGUAAUGGUGAGGAUAUCGAUUUUUCGAGAAGGCGCCUCGAAGUGAUACGAAAGUAUCGCUUCG [FMN A 6]
Result: 255

Task: Another sequence: UGGACAUGACUCGAUAAGAGUCAAUGGGAUACCAGUGACGAAAGUCACCCUUGGCAGCUCAACUGCCAGUGAUGUUGGUAGUCCU [Astros-Elimod]
Result: 125
